biological target: Phosphatidylinositol 4,5-bisphosphate 3-kinase catalytic subunit alpha isoform (Homo sapiens); test: Inhibition of PI3Kalpha in human SK-OV-3 cells assessed as reduction in AKT phosphorylation at S473 residue incubated for 30 mins; format: cell-based
Sequence (P42336 whole entry, canonical isoform): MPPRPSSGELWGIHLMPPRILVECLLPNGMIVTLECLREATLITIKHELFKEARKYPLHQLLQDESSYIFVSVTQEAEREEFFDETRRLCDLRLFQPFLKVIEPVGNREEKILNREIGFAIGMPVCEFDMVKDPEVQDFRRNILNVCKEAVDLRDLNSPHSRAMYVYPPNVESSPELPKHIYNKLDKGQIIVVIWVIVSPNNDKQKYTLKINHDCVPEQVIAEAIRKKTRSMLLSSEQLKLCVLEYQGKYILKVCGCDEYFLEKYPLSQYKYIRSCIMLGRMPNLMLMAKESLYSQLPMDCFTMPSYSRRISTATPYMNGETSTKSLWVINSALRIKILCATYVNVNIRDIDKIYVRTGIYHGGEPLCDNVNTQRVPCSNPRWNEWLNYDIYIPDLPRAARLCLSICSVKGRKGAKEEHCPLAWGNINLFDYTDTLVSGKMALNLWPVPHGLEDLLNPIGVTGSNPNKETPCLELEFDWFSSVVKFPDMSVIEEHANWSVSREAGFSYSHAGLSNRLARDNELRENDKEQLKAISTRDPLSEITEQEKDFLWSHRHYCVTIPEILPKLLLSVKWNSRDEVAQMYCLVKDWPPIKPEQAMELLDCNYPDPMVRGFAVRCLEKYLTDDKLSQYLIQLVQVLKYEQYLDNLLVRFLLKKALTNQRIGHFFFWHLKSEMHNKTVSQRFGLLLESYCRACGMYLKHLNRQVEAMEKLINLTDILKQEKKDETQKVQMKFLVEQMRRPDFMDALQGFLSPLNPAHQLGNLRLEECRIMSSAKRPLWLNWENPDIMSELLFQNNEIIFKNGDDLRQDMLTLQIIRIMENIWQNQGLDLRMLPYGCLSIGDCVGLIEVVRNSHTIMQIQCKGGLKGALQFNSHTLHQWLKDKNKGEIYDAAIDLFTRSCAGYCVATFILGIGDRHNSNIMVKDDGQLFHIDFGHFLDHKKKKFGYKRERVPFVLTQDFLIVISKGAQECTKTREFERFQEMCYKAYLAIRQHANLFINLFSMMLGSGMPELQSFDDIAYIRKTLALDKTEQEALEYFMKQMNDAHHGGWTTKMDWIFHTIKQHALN
property label: IC50

According to the records, this compound C[C@H]1CC[C@@H](c2nc3cccc(Cl)c3c(=O)n2-c2cccc(F)c2)N1c1ncnc2[nH]cnc12 displays IC50 of 4.36 µM

###

molecular target: Phosphatidylinositol 4,5-bisphosphate 3-kinase catalytic subunit gamma isoform (Homo sapiens, UniProt P48736); assay: Inhibition of PI3Kgamma (unknown origin)
Sequence (P48736 whole entry, canonical isoform): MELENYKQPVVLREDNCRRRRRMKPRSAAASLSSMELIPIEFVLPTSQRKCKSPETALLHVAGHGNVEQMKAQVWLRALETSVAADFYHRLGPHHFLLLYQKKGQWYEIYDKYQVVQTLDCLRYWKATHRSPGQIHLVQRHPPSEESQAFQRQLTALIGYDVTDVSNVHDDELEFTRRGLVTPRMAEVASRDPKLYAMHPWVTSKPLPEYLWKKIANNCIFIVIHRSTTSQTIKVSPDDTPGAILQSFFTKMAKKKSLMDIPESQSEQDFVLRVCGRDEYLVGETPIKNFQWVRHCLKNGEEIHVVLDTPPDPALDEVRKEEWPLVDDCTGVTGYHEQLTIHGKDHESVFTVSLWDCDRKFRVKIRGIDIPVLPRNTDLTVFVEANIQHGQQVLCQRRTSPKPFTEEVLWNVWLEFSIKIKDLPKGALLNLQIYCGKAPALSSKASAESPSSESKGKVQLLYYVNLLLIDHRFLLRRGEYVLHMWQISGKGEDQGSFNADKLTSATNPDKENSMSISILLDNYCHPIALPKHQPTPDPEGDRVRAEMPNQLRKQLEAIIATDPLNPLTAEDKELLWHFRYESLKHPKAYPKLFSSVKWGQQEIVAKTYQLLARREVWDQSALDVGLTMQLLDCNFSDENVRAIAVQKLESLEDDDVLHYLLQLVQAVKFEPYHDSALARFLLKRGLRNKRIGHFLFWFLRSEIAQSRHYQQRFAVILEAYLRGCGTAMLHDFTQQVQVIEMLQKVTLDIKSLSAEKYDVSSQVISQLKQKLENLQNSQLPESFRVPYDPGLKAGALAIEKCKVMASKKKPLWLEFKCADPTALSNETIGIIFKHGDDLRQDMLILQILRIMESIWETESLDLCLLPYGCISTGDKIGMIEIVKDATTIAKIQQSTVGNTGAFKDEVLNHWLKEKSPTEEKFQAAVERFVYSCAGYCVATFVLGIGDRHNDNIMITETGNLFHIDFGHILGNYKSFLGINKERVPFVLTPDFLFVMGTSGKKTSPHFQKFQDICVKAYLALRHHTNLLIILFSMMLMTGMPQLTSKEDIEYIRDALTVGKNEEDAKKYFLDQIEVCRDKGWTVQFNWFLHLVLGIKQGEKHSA
property label: log10 of IC50 (log10 of the value in nM)
Plainly stated, the numbers are log10 of IC50 given in nM.

{"columns": ["cpd smiles", "endpoint result"],
 "data": [
  ["C[C@H]1CC[C@@H](c2nc3cccc(Cl)c3c(=O)n2-c2ccccc2)N1c1nc(N)nc2[nH]cnc12", 1.58]
]}

Briefly, log10 of IC50 measured for C=C1C[C@@H](c2nc3cccc(Cl)c3c(=O)n2-c2ccccc2)N(c2ncnc(N)c2C#N)C1 : 2.40

For record N#Cc1c(N)ncnc1N1CC2(CC2)C[C@H]1c1nc2cccc(Cl)c2c(=O)n1-c1ccccc1 the listed log10 of IC50 is 2.82

Entry C[C@H]1CC[C@@H](c2nc3cccc(Cl)c3c(=O)n2-c2cccnc2)N1c1ncnc(N)c1C#N — recorded log10 of IC50 = 2.55

Value of log10 of IC50 reported for the compound C[C@H]1CC[C@@H](c2nc3cccc(Cl)c3c(=O)n2-c2cccc(F)c2)N1c1ncnc2[nH]ccc12 is 1.87

Per the record, C[C@H]1CC[C@@H](c2nc3cccc(Cl)c3c(=O)n2-c2cccc(F)c2)N1c1nc(N)nc2[nH]cnc12 has log10 of IC50 of 0.95

Lab book: log10 of IC50 of C[C@H]1CC[C@@H](c2nc3cccc(Cl)c3c(=O)n2N2CCOCC2)N1c1ncnc(N)c1C#N noted as 2.47

log10 of IC50 in this record for C[C@H]1CC[C@@H](c2nc3cccc(Cl)c3c(=O)n2-c2cccc(F)c2)N1c1ncnc(N)c1C#N : 2.30

// sample C[C@H]1CC[C@@H](c2nc3cccc(Cl)c3c(=O)n2-c2ccccc2)N1c1ncnc(N)c1C#N , its log10 of IC50 was 2.16

log10 of IC50 reading for C[C@H]1CC[C@@H](c2nc3cccc(Cl)c3c(=O)n2-c2cccc(F)c2)N1c1ncnc2[nH]cnc12 : 2.43

The measurements presented in this section are drawn from ChEMBL document CHEMBL5149992.
